- METHOD: Solubility in buffers, biorelevant media and water
- CONDITION_SUMMARY: Water
QUANTITY_KIND: pH final of solubility sample

Identify the reported pH final of solubility sample for the following entry. O=C([O-])C[C@H]1CC[C@H](c2ccc(-c3ccc(Nc4nc5ccccc5o4)cn3)cc2)CC1.[Na+] [Sodium]
(9.3)

* * *

- METHOD: Solubility in buffers, biorelevant media and water
- CONDITION_SUMMARY: pH 6.5 (50 mM Phosphate)
QUANTITY_KIND: pH final of solubility sample

Identify the reported pH final of solubility sample for the following entry. O=C([O-])C[C@H]1CC[C@H](c2ccc(-c3ccc(Nc4nc5ccccc5o4)cn3)cc2)CC1.[Na+] [Sodium]
(8.5)

* * *

- METHOD: Solubility in buffers, biorelevant media and water
- CONDITION_SUMMARY: FaSSIF V2, fassif, Solubility [mg/ml], FaSSIF V2
QUANTITY_KIND: Solubility (µg/mL)
Report as a plain number; the unit µg/mL is understood.

Identify the reported Solubility for the following entry. O=C(O)C[C@H]1CC[C@H](c2ccc(-c3ccc(Nc4nc5ccccc5o4)cn3)cc2)CC1 [Free acid]
20

* * *

- METHOD: Hygroscopicity (relative humidity)
- Type: physicochemical
- CONDITION_SUMMARY: 0-95% r.h.
QUANTITY_KIND: Hygroscopicity [%] 0-95% r.h. (%)

Here are 2 molecules together with their reported answers.
Identify the reported Hygroscopicity [%] 0-95% r.h. for the following entry. C[N+](C)(C)CCO.O=C(O)C[C@H]1CC[C@H](c2ccc(-c3ccc(Nc4nc5ccccc5o4)cn3)cc2)CC1.O=C([O-])C[C@H]1CC[C@H](c2ccc(-c3ccc(Nc4nc5ccccc5o4)cn3)cc2)CC1
15.95

Identify the reported Hygroscopicity [%] 0-95% r.h. for the following entry. O=C([O-])C[C@H]1CC[C@H](c2ccc(-c3ccc(Nc4nc5ccccc5o4)cn3)cc2)CC1.[K+]
21.77

(P) O=C(O)C[C@H]1CC[C@H](c2ccc(-c3ccc(Nc4nc5ccccc5o4)cn3)cc2)CC1 [Meglumine Form A]
(Q) O=C(O)C[C@H]1CC[C@H](c2ccc(-c3ccc(Nc4nc5ccccc5o4)cn3)cc2)CC1 [Free acid]
(R) O=C([O-])C[C@H]1CC[C@H](c2ccc(-c3ccc(Nc4nc5ccccc5o4)cn3)cc2)CC1.[Na+] [Sodium]
Rank descending by Hygroscopicity [%] 0-95% r.h.. Answer by listing the labels in the order asked for.
R, P, Q

* * *

- METHOD: Efficacious AUC in dog
- Format: in vivo
- CONDITION_SUMMARY: plasma, 0.3 mg/kg, at 0.3 mpk
QUANTITY_KIND: AUC (nM·h)
Report as a plain number; the unit nM·h is understood.

Identify the reported AUC for the following entry. O=C(O)C[C@H]1CC[C@H](c2ccc(-c3ccc(Nc4nc5ccccc5o4)cn3)cc2)CC1 [Free acid]
132

* * *

- METHOD: Solubility in buffers, biorelevant media and water
- CONDITION_SUMMARY: pH 1 (0.1N HCl)
QUANTITY_KIND: Solubility (µg/mL)

(P) O=C(O)C[C@H]1CC[C@H](c2ccc(-c3ccc(Nc4nc5ccccc5o4)cn3)cc2)CC1 [Meglumine Form A]
(Q) O=C([O-])C[C@H]1CC[C@H](c2ccc(-c3ccc(Nc4nc5ccccc5o4)cn3)cc2)CC1.[K+]
Record comparison, field Solubility: mark the lower of P and Q . Write down the label of the entry you select.
Q

Hello, the source for this data is patent US8987459B2, in case you need it.
